test system: Male beagle dogs; assay: canine telemetry protocol, blood pressure reduction efficacy; format: in vivo; conditions: systolic blood pressure, change from baseline; 3 mg/kg oral gavage; 6-12 h
observable: ΔSBP (mm Hg) 6-12 h
Unit mm Hg implied. Number only.

ΔSBP (mm Hg) 6-12 h reported for this molecule CCN(/[N+]([O-])=N/O[C@H]1CC[C@@H](C(=O)O)CC1)C(C)(C)C : −5

get_value(item= CN(/[N+]([O-])=N/O[C@H]1CC[C@@H](C(=O)O)CC1)C(C)(C)C , readout=ΔSBP (mm Hg) 6-12 h) returns −10

// field: ΔSBP (mm Hg) 6-12 h; key: CCN(/[N+]([O-])=N/O[C@H]1CC[C@H](C(=O)O)CC1)C(C)(C)C ; value = −10

Entry under test: CN(/[N+]([O-])=N/O[C@H]1CC[C@H](C(=O)O)CC1)C(C)(C)C . Its ΔSBP (mm Hg) 6-12 h was −4

ΔSBP (mm Hg) 6-12 h in this record for CCCCN(/[N+]([O-])=N/O[C@H]1CC[C@H](C(=O)O)CC1)C(C)(C)C : −14
